Tested on: Nakaseomyces glabratus
TEST: Antifungal activity against Candida glabrata after 48 hrs by spectrophotometry
Type: functional
REPORTED CONDITIONS: Nakaseomyces glabratus, 48 h
MIC by entry:
MEASUREMENT KIND: MIC (µg/mL)

* CC(=O)N1CCN(c2ccc(OCC3COC(Cn4ccnc4)(c4ccc(Cl)cc4Cl)O3)cc2)CC1 (centres undefined) [KETOCONAZOLE] | 0.78
* C[C@@H]1CC[C@@]2(OC1)O[C@H]1C[C@H]3[C@@H]4CC[C@@H]5C[C@@H](O[C@@H]6O[C@H](CO[C@@H]7O[C@H](CO)[C@@H](O)[C@H](O)[C@H]7O)[C@@H](O[C@@H]7O[C@H](CO)[C@@H](O)[C@H](O)[C@H]7O)[C@H](O)[C@H]6O[C@@H]6O[C@H](CO)[C@@H](O)[C@H](O)[C@H]6O)CC[C@]5(C)[C@H]4CC[C@]3(C)[C@H]1[C@@H]2C | 12.5
* C[C@@H]1CC[C@@]2(OC1)O[C@H]1C[C@H]3[C@@H]4CC[C@@H]5C[C@@H](O[C@@H]6O[C@H](CO[C@@H]7O[C@H](CO)[C@@H](O)[C@H](O)[C@H]7O)[C@@H](O[C@@H]7O[C@H](CO)[C@@H](O)[C@H](O)[C@H]7O)[C@H](O)[C@H]6O)CC[C@]5(C)[C@H]4CC[C@]3(C)[C@H]1[C@@H]2C | 12.5
* C[C@@H]1CC[C@@]2(OC1)O[C@H]1C[C@H]3[C@@H]4CC[C@@H]5C[C@@H](O[C@@H]6O[C@H](CO[C@@H]7O[C@H](CO)[C@@H](O)[C@H](O)[C@H]7O)[C@@H](O)[C@H](O)[C@H]6O[C@@H]6O[C@H](CO)[C@@H](O)[C@H](O)[C@H]6O)CC[C@]5(C)[C@H]4CC[C@]3(C)[C@H]1[C@@H]2C [DISPOROSIDE A] | 25
